The measurements presented in this section are drawn from ChEMBL document CHEMBL5038579.

Examples of compounds with documented EC50 follow.
test system: MEF; assay: Cytotoxicity against MCL deficient mouse embryonic fibroblast cells assessed as reduction in cell viability in presence of 1 % fetal calf serum measured after 24 hrs by propidium iodide staining based flow cytometric analysis; format: functional

{"COMPOUND": "CCCN(C(=O)N[C@@H](CSCc1ccccc1)C(=O)O)C(=O)c1ccc(-c2ccccc2)cc1", "READING UNIT": "µM", "QUALIFIER": ">", "EC50": 25}
{"COMPOUND": "Cc1ccc(CN(C(=O)N[C@@H](CS(=O)(=O)CC2CCCCC2)C(=O)O)C(=O)c2ccc3c(c2)CCN(Cc2ccccc2-c2ccc(Cl)cc2)C3)cc1", "READING UNIT": "µM", "QUALIFIER": "=", "EC50": 19.2}
{"COMPOUND": "CN(C)CC[C@H](CSc1ccccc1)Nc1ccc(S(=O)(=O)NC(=O)c2ccc(N3CCN(Cc4ccccc4-c4ccc(Cl)cc4)CC3)cc2)cc1[N+](=O)[O-] [ABT 737]", "READING UNIT": "µM", "QUALIFIER": "=", "EC50": 0.013}

###

assay: Inhibition of GST tagged human BCL-XL deltaC25 using biotin-DLRPEIRIAQELRIZIGDEFNETYTRR as substrate […] measured after 4 hrs by AlphaSCREEN assay
pIC50: −log10 of the molar value.

{"ITEM SMILES": "CSC[C@H](NC(=O)N(Cc1ccc(C)cc1)C(=O)c1ccc(-c2ccccc2)cc1)C(=O)O", "QUALIFIER": "=", "pIC50": 4.88}
{"ITEM SMILES": "COC(=O)[C@H](CSCc1ccccc1)NC(=O)N(Cc1ccc(C)cc1)C(=O)c1ccc(-c2ccccc2)cc1", "QUALIFIER": "<", "pIC50": 4.00}
{"ITEM SMILES": "Cc1ccc(CN(C(=O)N[C@@H](CSCc2ccccc2)C(=O)O)C(=O)c2ccc(-c3cccc(-c4ccccc4-c4ccc(Cl)cc4)c3)cc2)cc1", "QUALIFIER": "=", "pIC50": 6.62}
{"ITEM SMILES": "Cc1ccc(CN(C(=O)N[C@@H](CS(=O)(=O)CC2CCCCC2)C(=O)O)C(=O)c2ccc3c(c2)CCN(Cc2ccccc2-c2ccc(Cl)cc2)C3)cc1", "QUALIFIER": "=", "pIC50": 7.40}

###

assay: Inhibition of GST tagged human BCL-XL deltaC25 using biotin-DLRPEIRIAQELRIZIGDEFNETYTRR as substrate […] measured after 4 hrs by AlphaSCREEN assay

{"ITEM SMILES": "Cc1ccc(CN(C(=O)N[C@@H](CS(=O)(=O)CC23CC4CC(CC(C4)C2)C3)C(=O)O)C(=O)c2ccc3c(c2)CCN(Cc2ccccc2-c2ccc(Cl)cc2)C3)cc1", "IC50 (nM)": 40}
{"ITEM SMILES": "Cc1ccc(CN(C(=O)N[C@@H](CS(=O)(=O)CC2CCCCC2)C(=O)O)C(=O)c2ccc(-c3ccccc3)cc2)cc1", "IC50 (nM)": 460}
{"ITEM SMILES": "Cc1ccc(CN(C(=O)N[C@@H](CS(=O)(=O)Cc2ccccc2)C(=O)O)C(=O)c2ccc3c(c2)CCN(Cc2ccccc2-c2ccc(Cl)cc2)C3)cc1", "IC50 (nM)": 170}
{"ITEM SMILES": "CCCN(C(=O)N[C@@H](CSCc1ccccc1)C(=O)O)C(=O)c1ccc(-c2ccccc2)cc1", "IC50 (nM)": 31000}
